Data origin: patent US20250388544A1

Reported pKi values are given for each entry in this list.
Target: hMeprin β (Homo sapiens, UniProt Q16820)
Sequence (Q16820 62-701): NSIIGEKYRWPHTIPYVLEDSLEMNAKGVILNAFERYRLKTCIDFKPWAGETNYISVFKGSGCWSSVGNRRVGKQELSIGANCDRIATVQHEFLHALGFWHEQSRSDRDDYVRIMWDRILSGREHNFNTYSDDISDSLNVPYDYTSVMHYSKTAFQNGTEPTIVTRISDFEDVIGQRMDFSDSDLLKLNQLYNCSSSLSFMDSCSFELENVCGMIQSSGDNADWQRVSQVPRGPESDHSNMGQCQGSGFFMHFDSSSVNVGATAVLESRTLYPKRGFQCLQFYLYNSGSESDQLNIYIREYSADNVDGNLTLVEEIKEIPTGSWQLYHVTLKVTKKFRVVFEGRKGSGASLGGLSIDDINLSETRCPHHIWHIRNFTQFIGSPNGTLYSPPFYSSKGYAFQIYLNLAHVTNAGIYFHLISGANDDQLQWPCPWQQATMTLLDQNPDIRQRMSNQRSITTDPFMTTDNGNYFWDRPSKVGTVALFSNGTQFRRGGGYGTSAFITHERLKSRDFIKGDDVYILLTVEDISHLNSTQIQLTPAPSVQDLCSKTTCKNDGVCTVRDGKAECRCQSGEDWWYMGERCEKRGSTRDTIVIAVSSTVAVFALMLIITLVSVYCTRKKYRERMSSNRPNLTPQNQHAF
The quantity pKi is defined as the negative base-10 logarithm of the molar concentration.

Recorded pKi, per entry:
                                   compound  experimentalresult
0  O=C(Cn1c(-c2cccc(C(=O)O)c2)nc2ccccc21)NO                6.80
1  O=C(Cc1c(-c2cccc(C(=O)O)c2)n[nH]c1-c1ccccc1)NO                7.33
2  O=C(CCc1c(-c2ccccc2)nn(Cc2ccc(Cl)c(O)c2F)c1-c1ccccc1)NO                5.93
3  O=C(Cc1c(-c2ccc(C(=O)O)cc2)n[nH]c1-c1ccc(C(=O)O)cc1)NO                6.94
4  N#Cc1ccc(-c2n[nH]c(-c3ccccc3)c2CC(=O)NO)cc1                6.00

Q: Please report the recorded pKi for O=C(Cc1c(-c2ccc3c(c2)OCO3)n[nH]c1-c1ccccc1)NO .
Ans: 6.96

Q: Could you do the same for COc1ccc(-c2n[nH]c(-c3ccccc3)c2CC(=O)NO)cc1 , please?
Ans: 7.21

Q: Could you do the same for O=C(Cc1c(C2CCCC(C(=O)O)C2)n[nH]c1-c1ccccc1)NO (stereo not shown) , please?
Ans: 7.26

Q: Could you do the same for O=C(Cc1c(C2CCCC2)n[nH]c1-c1ccccc1)NO , please?
Ans: 6.49

Q: Could you do the same for O=C(Cc1c(-c2ccc(Cl)c(O)c2F)n[nH]c1-c1ccc(Cl)c(O)c1F)NO , please?
Ans: 7.85

----------
Target: hADAM 17 (Homo sapiens, UniProt P78536)
Construct: purchased R&D systems
Sequence (P78536 215-824): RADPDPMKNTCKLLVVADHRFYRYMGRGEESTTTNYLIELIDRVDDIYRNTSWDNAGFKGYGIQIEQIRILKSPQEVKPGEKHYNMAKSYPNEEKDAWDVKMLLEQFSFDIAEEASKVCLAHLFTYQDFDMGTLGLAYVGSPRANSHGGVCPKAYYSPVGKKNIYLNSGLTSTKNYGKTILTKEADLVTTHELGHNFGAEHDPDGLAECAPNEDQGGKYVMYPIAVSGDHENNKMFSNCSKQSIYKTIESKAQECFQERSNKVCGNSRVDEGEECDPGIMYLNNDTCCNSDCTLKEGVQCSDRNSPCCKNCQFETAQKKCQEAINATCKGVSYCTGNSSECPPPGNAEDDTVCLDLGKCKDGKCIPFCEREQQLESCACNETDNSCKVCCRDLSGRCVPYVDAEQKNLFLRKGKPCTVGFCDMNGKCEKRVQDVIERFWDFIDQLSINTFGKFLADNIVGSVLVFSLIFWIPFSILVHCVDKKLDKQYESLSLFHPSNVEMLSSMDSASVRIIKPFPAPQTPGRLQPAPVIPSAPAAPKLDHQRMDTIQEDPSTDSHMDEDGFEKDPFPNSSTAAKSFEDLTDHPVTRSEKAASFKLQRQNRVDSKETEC
Assay: Residual enzyme activity of other metalloproteases
Assay type: biochemical
Details: 10 μM inhibitor; read-out: Residual enzyme activity ADAM17
parameter: remaining activity at 10 µM (%)
Write the value in % as a bare number.

Recorded remaining activity at 10 µM, per entry:
                                  smilesstr  experimentalresult
0  O=C(Cc1c(-c2ccccc2)nn(Cc2ccc3c(c2)OCO3)c1-c1ccccc1)NO                  21
1  O=C(Cc1c(-c2ccc3c(c2)OCO3)n[nH]c1-c1ccccc1)NO                  51
2  O=C(Cc1c(-c2cccc(C(=O)O)c2)n[nH]c1-c1ccc(Cl)c(O)c1F)NO                  99
3          O=C(Cn1c(-c2ccccc2)cc2ccccc21)NO                  88
4    O=C(Cc1c(-c2ccccc2)n[nH]c1-c1ccccc1)NO                  61

Q: Please report the recorded remaining activity at 10 µM for O=C(CCc1c(-c2ccccc2)noc1-c1ccccc1)NO .
Ans: 75

Q: Could you do the same for O=C(Cn1c(-c2ccccc2)nc2ccccc21)NO , please?
Ans: 92

Q: Could you do the same for O=C(Cc1c(-c2ccccc2)nn(Cc2ccc(Cl)c(O)c2F)c1-c1ccccc1)NO , please?
Ans: 72

Q: Could you do the same for O=C(Cc1c(-c2cc(F)c(O)c(Cl)c2)n[nH]c1-c1ccccc1)NO , please?
Ans: 68

----------
Molecular target: hMeprin α (Homo sapiens, UniProt Q16819)
Sequence (Q16819 66-746): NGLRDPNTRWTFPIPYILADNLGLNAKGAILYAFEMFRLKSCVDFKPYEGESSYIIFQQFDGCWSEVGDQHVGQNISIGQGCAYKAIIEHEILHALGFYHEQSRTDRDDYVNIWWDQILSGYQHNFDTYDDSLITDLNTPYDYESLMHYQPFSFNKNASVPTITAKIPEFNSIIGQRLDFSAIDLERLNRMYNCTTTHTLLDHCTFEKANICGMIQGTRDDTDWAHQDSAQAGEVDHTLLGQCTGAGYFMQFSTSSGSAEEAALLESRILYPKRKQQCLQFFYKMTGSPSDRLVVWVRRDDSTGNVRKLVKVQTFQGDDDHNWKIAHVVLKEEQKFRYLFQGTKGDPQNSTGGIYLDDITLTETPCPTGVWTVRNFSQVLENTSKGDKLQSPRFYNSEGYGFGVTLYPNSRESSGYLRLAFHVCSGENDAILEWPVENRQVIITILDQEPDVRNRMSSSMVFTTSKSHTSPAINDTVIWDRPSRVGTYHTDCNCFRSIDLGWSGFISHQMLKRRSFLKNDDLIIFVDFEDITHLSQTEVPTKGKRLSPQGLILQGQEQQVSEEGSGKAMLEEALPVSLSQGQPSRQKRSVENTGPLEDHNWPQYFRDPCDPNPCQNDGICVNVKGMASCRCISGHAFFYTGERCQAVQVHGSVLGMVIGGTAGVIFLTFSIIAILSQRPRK
Test: Enzymatic assay, quenched peptide substrate cleavage, method B
Type: biochemical
Conditions: geometric mean (geometric SD factor in parentheses), read-out: Meprin alpha IC50
parameter: log10 IC50 (log10 of the value in nM)
Form field - Quantity: IC50; Unit: nM; Scale: log10

Recorded log10 IC50, per entry:
>>> df
                                   compound  experimentalresult
0  O=C(Cc1c(-c2ccccc2)nn(Cc2ccc3c(c2)OCO3)c1-c1ccccc1)NO               -0.12
1   O=C(CCc1c(-c2ccccc2)n[nH]c1-c1ccccc1)NO                1.90
2  O=C(Cc1c(-c2ccc(C(=O)O)cc2)n[nH]c1-c1cccc(C(=O)O)c1)NO                1.32
3  O=C(Cc1c(-c2ccc(C(=O)O)cc2)n[nH]c1-c1ccccc1)NO                1.26

Q: Hello, I am looking for reported log10 IC50 with hMeprin α (Homo sapiens, UniProt Q16819) for O=C(Cc1c(C2CCCC(C(=O)O)C2)n[nH]c1-c1ccccc1)NO (stereo not shown) . Could you help?
Ans: 0.00

Q: Could you do the same for O=C(Cc1c(-c2ccc(C(=O)O)cc2)n[nH]c1-c1ccc(C(=O)O)cc1)NO , please?
Ans: 1.75

Q: Could you do the same for COc1ccc(-c2n[nH]c(-c3ccccc3)c2CC(=O)NO)cc1 , please?
Ans: 0.00

Q: Could you do the same for O=C(Cc1c(-c2ccccc2)nn(Cc2ccc(Cl)c(O)c2F)c1-c1ccccc1)NO , please?
Ans: -0.80

Q: Could you do the same for O=C(Cc1c(C2CCCC2)n[nH]c1-c1ccccc1)NO , please?
Ans: 0.78

Q: Could you do the same for Cc1n[nH]c(-c2ccccc2)c1CC(=O)NO , please?
Ans: 2.49

Q: Could you do the same for O=C(Cn1c(-c2ccccc2C(=O)O)nc2ccccc21)NO , please?
Ans: 3.16

Q: Could you do the same for O=C(Cc1c(-c2cc(F)c(O)c(Cl)c2)n[nH]c1-c1ccccc1)NO , please?
Ans: -0.68

Q: Could you do the same for O=C(Cn1c(-c2ccccc2)nc2ccccc21)NO , please?
Ans: 2.15

Q: Could you do the same for O=C(Cc1c(-c2ccccc2)noc1-c1ccccc1)NO , please?
Ans: 0.60

Q: Could you do the same for O=C(Cc1c(-c2ccc3c(c2)OCO3)n[nH]c1-c1ccccc1)NO , please?
Ans: 0.00

Q: Could you do the same for O=C(CCc1c(-c2ccccc2)nn(Cc2ccc(Cl)c(O)c2F)c1-c1ccccc1)NO , please?
Ans: -0.66

Q: Could you do the same for O=C(CCn1c(-c2ccccc2)nc2ccccc21)NO , please?
Ans: 2.85

Q: Could you do the same for O=C(Cc1c(-c2ccc(Cl)c(O)c2F)nc2ccccn12)NO , please?
Ans: 1.96

Q: Could you do the same for O=C(Cn1c(-c2ccc(Cl)c(O)c2F)nc2cc(C(=O)O)ccc21)NO , please?
Ans: 2.65
